test: ATG_ISRE_CIS: Attagene CIS-FACTORIAL HepG2 Assay for human Interferon Regulatory Factor 1 (IRF1) binding to an Interferon-Stimulated Response Element (ISRE) (AID 2282948); conditions: HepG2 ISRE cis-reporter (Attagene), mRNA transcription readout; actives raise or lower the signal
Activity calls are given as the source filed them. How the source made its calls: active means hit-call score of the fitted dose curve at least 0.9, where 1 is the maximum; inactive means score below 0.9.
Answer with one of the outcomes class 1 = active, class 0 = inactive

NC(=O)c1c(Cl)cccc1Cl | class 0

Answer briefly: the call reported for `CCO[Si](CC)(OCC)OCC` in this assay.
class 0

Answer briefly: the call reported for `CCOC(=O)CC(C)C` in this assay.
class 0

Answer briefly: the call reported for CC12CCC(C1)C(C)(C)C2O (stereo not given) in this assay.
class 0

Answer briefly: the call reported for `NC(=O)NC(N)=O` in this assay.
class 0

Answer briefly: the call reported for `CC(C)=CCCC(C)=CC(=O)O` in this assay.
class 0

Answer briefly: the call reported for `CCOC(=O)COC(=O)c1ccccc1C(=O)OCC` in this assay.
class 0

Hello, the source for this data is PubChem BioAssay (EPA / NIEHS), in case you need it.
